Values were extracted from PubChem BioAssay (NCI).

- Test system: TK-10 renal
- run-description: NCI-60 one-dose screen, 48 h (100 = growth as untreated, 0 = no growth, -100 = all killed)
- test-settings: 10 µM
The panel holds about 83,000 compounds, 20% with a hit somewhere; the sample as a whole holds those more often.
parameter: growth (%)
Kindly provide the numeric value in % only, without the unit symbol.

COc1ccc2c(c1)O/C(=C\c1ccc([N+](=O)[O-])o1)C2=O
-33.7
CCCCOc1ccc(NC(=O)Nc2nnc(C)s2)cc1
118
N=C(N)c1ccc(-c2ccc(-c3ccco3)o2)cc1
109
Clc1ccc(Sc2nc(NC3CC3)nc(Sc3ccc(Cl)cc3)n2)cc1
112
Cc1ccc(C)c(C(O)(c2cc(C)ccc2C)C2(O)CCCCC2)c1
89.8
COc1cc(-c2cc(/C=C3\C(=O)Nc4cc(Cl)ccc43)[nH]n2)cc(OC)c1OC
60.9

[ask] So what's the measured growth for this one? "Nc1nc(N)c(NC(=O)CNc2ccc(C(=O)O)cc2)c(N)n1"
[reply] 108

[ask] Thanks! And "N#Cc1cccc(OCc2nc(N)nc(N)c2-c2ccc(Cl)c(Cl)c2)c1" ?
[reply] 46.1

[ask] Thanks! And "COc1ccc(S(=O)(=O)Nc2c(/C=C\c3cc(OC)c(OC)c(OC)c3)ccc(OC)c2O)cc1" ?
[reply] 39.9

====

Recorded measurements of growth, one per entry
- System: BT-549 breast
- run-description: NCI-60 one-dose screen, 48 h (100 = growth as untreated, 0 = no growth, -100 = all killed)
- test-settings: 10 µM
The panel holds about 83,000 compounds, 20% with a hit somewhere; the sample as a whole holds those more often.
Kindly provide the numeric value in % only, without the unit symbol.

Check out these entries, answers already filled in.
CCCCN(CCCC)c1cc(C(=O)CCCCCN)c2ccccc2n1
68.2
O=C(Nc1cccc(-n2cc(-c3ccncc3)c(-c3ccc(O)c(Cl)c3)n2)c1)c1ccc(N2CCOCC2)c(C(F)(F)F)c1
47.2
COc1ccc2c(c1)-c1c(c3cc(OC)ccc3n(CCN(C)C)c1=O)C2=O
64.2

[ask] So what's the measured growth for this one? Nc1ccc2c(c1)C1(CCC2)NC(=O)NC1=O (configuration not stated)
[reply] 102

[ask] Thanks! And "CCN1Cc2c(/C=C/c3ccccc3)nc3ccc(OC)cc3c2N(c2cccc(Cl)c2)C1" ?
[reply] 95.2

[ask] Thanks! And "CN1CCC(CNc2cc(C3(C(=O)Nc4cc(C(=O)Nc5ccc(Cl)c(C(F)(F)F)c5)ccc4F)CC3)ncn2)CC1" ?
[reply] 52.5

[ask] Thanks! And "O=C(N/N=C/c1ccccc1O)C(O)(c1ccccc1)c1ccccc1" ?
[reply] 70.3

[ask] Thanks! And "COc1ccc(-c2ccc3cc(C(=O)Nc4ccc(O)c(C(=O)/C=C/c5cc(OC)c(OC)c(OC)c5)c4)ccc3c2)cc1" ?
[reply] 102

====

- Tested on: HCT-116 colon
- run-description: NCI-60 one-dose screen, 48 h
- test-settings: 10 µM
- Method: Growth inhibition of the HCT-116 human tumor cell line is measured as a screen for anti-cancer activity. Cells are grown in 96 well plates and exposed to the test compound for 48 hours. Compounds are tested at a single concentration, which is 10^-5 M for most compounds. The reported endpoint is percent growth (GI% or GIPRCNT), where numbers from 0 - 100% represent growth inhibition, and numbers from -100% - 0 represent cell death. For example, a value of 40 represents 60% growth inhibition. […]
The panel holds about 83,000 compounds, 20% with a hit somewhere; the sample as a whole holds those more often. The source made the active and inactive calls. The calls were made as follows: active = growth percent below 10; inactive = the rest.
The reply should be one of these categories: 1 (yes) (active), 0 (no) (inactive)

Solved cases (3 shown):
COc1cc(-c2cc(C(=O)N3CCN(C(=O)c4ccccc4NCc4ccco4)CC3)nc3cc(-c4ccccc4)nn23)cc(OC)c1OC
0 (no)
O=C(CCCCCCC(=O)Nc1cccnc1)NO
1 (yes)
O=c1oc2cc(OS(=O)(=O)c3ccccc3)ccc2c2c1CCCCC2
0 (no)

[ask] Please let me know the test result on file for "O=C(Nc1cccc(-n2cc(-c3ccncc3)c(-c3ccc(O)c(Cl)c3)n2)c1)c1ccc(N2CCOCC2)c(C(F)(F)F)c1" .
[reply] 0 (no)

[ask] Thanks! And "CN(C)CCN1C(=O)c2cccc3c(-c4ccc5ncn(C6CCCCC6)c5c4)ccc(c23)C1=O" ?
[reply] 1 (yes)

[ask] Thanks! And "c1ccc2c(c1)oc1c3c(ccc12)NCCC3" ?
[reply] 0 (no)

[ask] Thanks! And "COc1ccc(-c2nc3ccccn3c2-c2nnc(-c3cc(OC)c(OC)c(OC)c3)o2)cc1" ?
[reply] 0 (no)

[ask] Thanks! And COc1ccc(CN2CCC(N3CCCC3=O)c3cc(Cl)ccc32)cc1 (stereo not drawn) ?
[reply] 0 (no)

[ask] Thanks! And "Cc1ncc(-c2ccoc2)c(NC2CCCCCC2)n1" ?
[reply] 0 (no)

[ask] Thanks! And "O=C(Nc1nc2ccc(F)cc2s1)c1cc(-c2ccc(F)cc2)n2nc(-c3ccccc3)cc2n1" ?
[reply] 0 (no)

[ask] Thanks! And "O=C1/C(=C\c2ccc(Cl)cc2)CN(C(=S)Nc2ccccc2)C/C1=C\c1ccc(Cl)cc1" ?
[reply] 1 (yes)

[ask] Thanks! And "Cc1cc2ccccc2nc1-c1ccccc1F" ?
[reply] 0 (no)

[ask] Thanks! And "Cc1ccc(Nc2nnc(-c3cc(-c4ccncc4)n(-c4ccccc4)n3)s2)cc1" ?
[reply] 0 (no)

[ask] Thanks! And "O=C(Nc1cccc(-n2cc(-c3ccncc3)c(-c3ccc(O)c(Cl)c3)n2)c1)c1ccc(Cl)c(Cl)c1" ?
[reply] 0 (no)

[ask] Thanks! And "Nc1ccc2cc(S(=O)(=O)O)cc(O)c2c1N=Nc1ccc(F)cc1" ?
[reply] 0 (no)

[ask] Thanks! And CCN1CCCC1CNC(=O)c1ncc(-c2ccc(C(F)(F)F)cc2)c(NC2CCCCCC2)n1 (stereo not drawn) ?
[reply] 0 (no)
